- System: CAMK2D
- Test parameters: concentration: 1 μM, replicates: in singlicate; n = 1;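 also: KINOMEscan kinase panel screen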
Listed below: %Inh values for each entry.
Number in %, nothing else.

# annotated cases, reported %Inh shown
Line notation: Cc1c(O)cccc1Nc1ccnc2ccc(C(F)(F)F)cc12.Cl
Endpoint result: 0
//
Line notation: CN(C)CCN(C)C(=O)c1cc(-c2ccncc2)c(-c2ccc(Cl)c(O)c2)o1.Cl.Cl
Endpoint result: 0
//
Line notation: COC(=O)c1c(-c2ccccc2)c2cc(C(=O)O)ccc2c(=O)n1Cc1ccccc1
Endpoint result: 5
//
Line notation: COc1ccccc1CNC(=O)c1cc(C(=O)c2ccccc2C)c[nH]1
Endpoint result: 0
//
Line notation: COc1ccc2nc(-c3cccc(C)n3)nc(Nc3ccncc3)c2c1
Endpoint result: 0
//
Line notation: Cc1cccc(-c2nc(Nc3ccncc3)c3ccccc3n2)n1
Endpoint result: 7
//
Line notation: Nc1ncnc2[nH]c(-c3ccccc3)nc12
Endpoint result: 0
//
Line notation: Cc1ccc(C(=O)Nc2ccc(Nc3ccnc4cc(-c5ccccn5)ccc34)cc2O)cc1.Cl
Endpoint result: 0
//
Line notation: Cc1cc(-c2ccc3c(c2)CC[C@@H](N[C@@H](C)c2ccccc2)C3)cnc1N.Cl
Endpoint result: 97.6
//
Line notation: O=S(=O)(c1ccc(-c2ccnc3[nH]ccc23)cc1)N1CCCC1
Endpoint result: 44

Query: Which measured %Inh belongs to Cc1ccc(NC(=O)Nc2cccc(Cl)c2)cc1-c1ccc(C(=O)Nc2ccncc2)cc1 , tested on CAMK2D?
Result: 7

Query: Would you mind doing Fc1cccc(COc2nnc(-c3ccc4c(c3)CCO4)o2)c1 as well?
Result: 0

Query: Would you mind doing O=C1NC(=O)C(N2CCc3ccccc32)=C1c1ccccc1Cl as well?
Result: 18

* * *

Listed below: %Inh values for each entry.
- System: MST3
- Construct: gene STK24
- Test parameters: concentration: 1 μM, replicates: in singlicate; n = 1
The reply should consist of the numeric value with the unit placed after it.

# annotated cases, reported %Inh shown
Compound: Cc1cccc(-c2nc(Nc3ccncc3)c3ccccc3n2)n1 [GW855857]
Property measured: %Inh
Endpoint result: 3%

Compound: Cc1csc(-c2nc(Nc3ccncc3)c3ccccc3n2)n1 [GW869640]
Property measured: %Inh
Endpoint result: 11%

Compound: Cn1cncc1-c1ccc2ncnc(Nc3ccc(OCc4ccccc4)cc3)c2c1 [GW320571]
Property measured: %Inh
Endpoint result: 0%

Query: Any idea what its %Inh is? The compound is Cn1ccc2ncnc(Oc3ccc(NC(=O)Nc4ccccc4)cc3)c21
Result: 0%

Query: Would you mind doing NC(=O)c1nnc2ccccc2c1N as well?
Result: 0%

Query: Would you mind doing COc1cccc(NC(=O)NC2CCN(c3ccnc(Nc4ccc(F)cc4)n3)C2)c1 (stereo not drawn) [GSK1379721] as well?
Result: 0%

* * *

- System: ASK1
- Construct: gene MAP3K5
- Test parameters: concentration: 1 μM, replicates: in singlicate; n = 1
Property measured: %Inh (%)
Number in %, nothing else.

# annotated cases, reported %Inh shown
Compound: O=S(=O)(c1ccc(-c2ccnc3[nH]ccc23)cc1)N1CCCC1
Test target: ASK1
Endpoint result: 3

Compound: Cc1c(O)cccc1Nc1ccnc2ccc(C(F)(F)F)cc12.Cl
Test target: ASK1
Endpoint result: 0

Compound: Cc1cc(NCC(c2ccccc2)c2ccccc2)nc(NCc2ccc(C(F)(F)F)cc2)n1
Test target: ASK1
Endpoint result: 0

Compound: NC(=O)c1nnc2ccccc2c1N
Test target: ASK1
Endpoint result: 20

Compound: Cn1ccc2ncnc(Oc3ccc(Nc4nc5ccccc5[nH]4)cc3)c21
Test target: ASK1
Endpoint result: 0

Query: Any idea what its %Inh is? The compound is CS(=O)(=O)c1ccc(-c2nc3n(c2-c2ccncc2)CCC3)cc1
Result: 11

Query: Would you mind doing Cl.O=C(Nc1cccc(-c2nn3ncccc3c2-c2ccnc(Nc3cccnc3)n2)c1)c1c(F)cccc1F as well?
Result: 0

Query: Would you mind doing COc1cccc(NC(=O)NC2CCN(c3ccnc(Nc4ccc(F)cc4)n3)C2)c1 (stereo not drawn) as well?
Result: 8

Query: Would you mind doing Cc1cc(-c2ccc3c(c2)CC[C@@H](N[C@@H](C)c2ccccc2)C3)cnc1N.Cl as well?
Result: 33
